Just for reference, PubChem BioAssay (NCI) is where these values come from.

test system: NCI-H322M lung; assay: NCI-60 one-dose screen, 48 h (100 = growth as untreated, 0 = no growth, -100 = all killed); details: 10 µM unless noted
This is part of a sample that, as a whole, favours compounds with a hit. Of some 83,000 tested, about 20% had one in any assay.
metric_name: growth (%)
Your answer should be a plain number; it is taken to be in %.

* O=C(O)c1ccc(Br)nc1 | 101
* CCCCCCNC(=O)Oc1ccc(/C(=C(/C)Cc2ccc(OC)cc2)c2ccc(OCCN3CCCCC3)cc2)cc1 | 89.5
* O=c1[nH]c(=S)[nH]c(O)c1/C=C1\C=Nc2ccccc21 | 110

Field request: growth | item: `COc1cc(OC)c2c(=O)cc(-c3ccccc3)oc2c1`
93.2

Also `CC(C)OC(=O)Nn1cnc2ccccc21` , if possible.
122

Also `O=C1NCCN1/N=C/c1c(Cl)nc2n1CCS2` , if possible.
94.6

Also CC(=O)N1N=C(c2ccc(Cl)cc2)CC1c1cn(-c2ccccc2)nc1-c1ccc([N+](=O)[O-])cc1 (stereo unspecified) , if possible.
83.1

Also CC1(c2ccc(Br)cc2)NC(=O)NC1=O (stereo unspecified) , if possible.
103

Also `CCCCCCCCCCCCCCCCCCOP(=O)(O)O` , if possible.
103

Also COc1ccc(/C=C2\CCCC3=C2N=C2SC=NN2C3c2ccc(OC)c(OC)c2)cc1OC (stereo unspecified) , if possible.
38.3

Also `COc1ccccc1Cn1cc2c(c1)-c1oncc1CC2` , if possible.
24

----------
tested on: HS 578T breast; assay: NCI-60 one-dose screen, 48 h (100 = growth as untreated, 0 = no growth, -100 = all killed); conditions: 10 µM unless noted
The panel holds about 83,000 compounds, 20% with a hit somewhere; the sample as a whole holds those more often.
metric_name: growth (%)
Your answer should be a plain number; it is taken to be in %.

Consider the following illustrative entries.
• COc1cc(NC(=O)CSc2nc3ccc(Cl)cc3c(=O)n2-c2ccc(F)cc2)cc(OC)c1OC = 75
• O=C(/C=C1\C(=O)N(Cc2ccccc2)c2ccccc21)c1ccc(OCCN2CCCCC2)cc1 = 77.7
• CC1(c2ccc(Br)cc2)NC(=O)NC1=O (centres undefined) = 101
• O=C(C(=O)N1CCOCC1)c1ccc(O[C@H]2O[C@H](CO)[C@@H](O)[C@H](O)[C@@H]2O)cc1 = 183
• Cc1nc2c(nnn2-c2ccccc2)c2nc(-c3ccccc3)oc(=O)c12 = 107
• NNC(=S)N1N=C(c2cc3ccccc3o2)CC1c1c[nH]c2ccccc12 (centres undefined) = 63.8
• CCCNC(=O)Oc1ccc(/C(=C(/C)Cc2ccc(OC)cc2)c2ccc(OCCN3CCCC3)cc2)cc1 = 58.3
• C/C=C/C/C=C/[C@H](C)C[C@H](O)[C@@H]1C[C@@H]2O[C@H]2/C=C/[C@H](O)[C@@H](O)/C=C/C[C@H](C)CC(=O)O1 = 11

Field request: growth | item: `Cc1ccc(C(C)C)c(OCc2ccc(C(=O)N/N=C/c3cccc(O)c3O)cc2)c1`
76.8

----------
system: BT-549 breast; assay: NCI-60 one-dose screen, 48 h; details: 10 µM unless noted
Compounds without any hit were thinned out: in the full panel of roughly 83,000, 20% have a hit. Activity calls are given as the source filed them. Rule for the calls: active = growth percent below 10; inactive = the rest.
Hi there, use one of these labels in your reply, thanks! active, inactive

Worked examples follow.
- Cc1c([C@H](C(Cl)Cl)[C@H](O)[C@H]2C[C@H](C)C(=O)O2)ccc2c1C(=O)[C@H]1[C@H]2C[C@@H](Br)[C@@]23O[C@@H](CO[C@H]2O)CC13C (stereo partly specified): inactive
- COC1=CC(c2ccc[nH]2)=N/C1=C\c1[nH]c(C)c(C(=O)CCCCC(=O)NC(C)(C)C)c1C: active
- CC[n+]1c(C)ccc2cc(C)ccc21: inactive

In this assay, the call recorded for CCC1(CC)C(OC)NC(Br)=C(C#N)C1(C#N)C(N)=O (stereo unspecified) was what?
inactive

Also `O=C1/C(=N\c2cc(=O)[nH]n2S(=O)(=O)c2ccccc2)Nc2ccccc21` , if possible.
inactive

Also `C=CCN(C)C` , if possible.
inactive

Also `COc1cccc2c1nc1cccc(OC)c1[n+]2[O-]` , if possible.
inactive

Also CC(O)CCC(C)[N+](=O)[O-] (stereo unspecified) , if possible.
inactive

Also `O=C(NC(=S)NNC(=S)NNc1ccccc1)c1ccccc1` , if possible.
inactive

Also `CC(=O)c1ccc2c(c1)c1ccccc1n2C` , if possible.
inactive

Also `CC(=O)Nc1ccc(S(=O)(=O)Cl)cc1` , if possible.
inactive

----------
tested on: MOLT-4 leukemia; assay: NCI-60 one-dose screen, 48 h; conditions: 10 µM unless noted
The panel holds about 83,000 compounds, 20% with a hit somewhere; the sample as a whole holds those more often. Activity calls are given as the source filed them. The calls were made as follows: active = growth percent below 10; inactive = the rest.
Hi there, use one of these labels in your reply, thanks! yes (1) = active, no (0) = inactive

* CC1CCCCC[N+]12CCCC2 (stereo not given) | no (0)
* C[n+]1c2ccccc2c(Nc2ccc(NS(=O)(=O)CCCCN=C(N)N)cc2)c2ccc(N)cc21 | yes (1)
* Oc1ccc2ccccc2c1/C=N\Nc1ccccn1 | yes (1)
* O=C(N/N=C\c1ccc(-c2ccc(Br)cc2)o1)c1cc2oc(-c3cccc(C(F)(F)F)c3)cc2[nH]1 | no (0)

In this assay, the call recorded for `COc1cccc2c1n([O-])c1cccc(OC)c1[n+]2=O` was what?
no (0)

Also `Brc1c(-c2ccncc2)nc2n1CCS2` , if possible.
no (0)

Also CCCCCCCCCC(C)NC(=O)CCl (stereo not given) , if possible.
no (0)

Also `CC(=O)OCC(=O)[C@@]1(O)[C@H](C)C[C@H]2[C@@H]3C=C(C)C4=Cc5c(cnn5-c5ccc(F)cc5)C[C@]4(C)[C@H]3[C@@H](O)C[C@@]21C` , if possible.
yes (1)

Also `CC1(C)N=C(N)N=C(N)N1c1cccc(CCCCOc2ccccc2)c1` , if possible.
no (0)

Also COc1ccc(/C=C2\CCCC3=C2N=C2SC=NN2C3c2ccc(OC)c(OC)c2)cc1OC (stereo not given) , if possible.
no (0)

----------
# key: entry, value: growth
tested on: COLO 205 colon; experiment: NCI-60 one-dose screen, 48 h (100 = growth as untreated, 0 = no growth, -100 = all killed); conditions: 10 µM unless noted
This is part of a sample that, as a whole, favours compounds with a hit. Of some 83,000 tested, about 20% had one in any assay.
Your answer should be a plain number; it is taken to be in %.

* CCCC(=O)NNc1[nH]c(-c2ccc(OC)cc2)cc1C(=O)OCC | 1.42
* C/C=C/C/C=C/[C@H](C)C[C@H](O)[C@@H]1C[C@@H]2O[C@H]2/C=C/[C@H](O)[C@@H](O)/C=C/C[C@H](C)CC(=O)O1 | 109
* COc1ccc(C2C3(C#N)C(N)=NC(=C(C#N)C#N)C23C#N)cc1OC (stereo not given) | 123

Field request: growth | item: `CC(=N\N=C(N)N)/C(=N/N=C(N)N)c1ccccc1`
6.49

Also `CC(=O)NCCN` , if possible.
106

Also `CCN(CC)CCCNc1c2ccc(Cl)cc2nc2ccc(OC)cc12` , if possible.
-72.3

----------
test system: HOP-92 NSCLC; assay: NCI-60 one-dose screen, 48 h; settings: 10 µM
Compounds without any hit were thinned out: in the full panel of roughly 83,000, 20% have a hit. Activity calls are given as the source filed them. Rule for the calls: active = growth percent below 10; inactive = the rest.
Hi there, use one of these labels in your reply, thanks! active, inactive

Worked examples follow.
- COc1ccc(CN2C(=O)/C(=C\C(=O)c3ccc(OCCN4CCCC4)cc3)c3ccccc32)cc1: inactive
- c1ccc(Nc2ncc3c(n2)-c2cccn2CC3)cc1: inactive
- O=C(Nc1cccc2[nH]c(C(F)(F)F)nc12)c1ccc(F)cc1: active
- CC1(C)NC(=S)NC1=O: inactive
- CC(=O)Nc1ccc(C(=O)/C=C/c2ccc(N(C)C)cc2)cc1: inactive
- CC1(C)NCCC[C@]2(C)[C@H]3CC=C4[C@@H]5C[C@](C)(COC(=O)c6ccccc6C(=O)O)CC[C@]5(C)CC[C@@]4(C)[C@]3(C)CC[C@@H]12: inactive

In this assay, the call recorded for CCOC(=O)C1CCCN1C(=O)C1(NC(C)=O)CCCC1 (stereo unspecified) was what?
inactive

Also `C/C(CCC(=O)O)=N/Nc1ccc([N+](=O)[O-])cc1` , if possible.
inactive

Also N#CC1=C(N2CCOCC2)NC2c3ccccc3Sc3ccccc3N2C1=N (stereo unspecified) , if possible.
inactive

Also `C[C@]12C=CC(=O)C=C1[C@@H](F)C[C@@H]1[C@@H]2[C@@H](O)C[C@@]2(C)[C@H]1CC[C@]2(O)C(=O)CO` , if possible.
inactive
